Hey, just so you know, these numbers are from the METLIN SMRT retention time set (Domingo-Almenara et al. 2019).

experiment-description: gradient 5% acetonitrile 3 min, to 50% in 2 min, to 85% in 15 min, held 3 min, 100 µL/min
condition-parameters: column: Zorbax Extend-C18 2.1 x 50 mm; eluents: water / acetonitrile, 0.1% formic acid
Entries and their RP-LC retention time
Write down the numeric answer in s and omit the unit.

Input `O=C(c1ccccc1[N+](=O)[O-])N1c2nc(-c3ccccc3)nn2C2(CCCCC2)[C@@H]2CCCC[C@@H]21` . Output RP-LC retention time: 755

Input CC(C)CCNC(=O)C1CCN(S(C)(=O)=O)c2cc(Cl)ccc2O1 (centres undefined) . Output RP-LC retention time: 923

Input `O=C(Cn1nc2c(cc1=O)CCCCC2)Nc1cccc(N2CCCCS2(=O)=O)c1` . Output RP-LC retention time: 762

Input `COc1ccccc1C(=O)Nc1ccc2nc(N3CCN(CC(=O)N(C)C)CC3)cc(C(=O)O)c2c1` . Output RP-LC retention time: 579

Input COc1ccc(OCc2noc(CNC(=O)C3CC(=O)N(c4ccccc4)C3)n2)cc1 (centres undefined) . Output RP-LC retention time: 736

Input `O=C(C1CCCCC1)N1CCN(c2nnc3ccc(C(F)(F)F)cn23)CC1` . Output RP-LC retention time: 817

Input `COc1cccc(-c2nc(-c3ccc4nnn(C(C)C)c4c3)no2)c1` . Output RP-LC retention time: 1150

Input `O=C(Cn1c(=O)cc(-c2nc(C3CC3)no2)c2ccccc21)NCc1ccc2c(c1)OCO2` . Output RP-LC retention time: 906

Input `CC(C)NC(=O)CN1CCN(C(=O)Nc2ccc(Cl)cc2)CC1=O` . Output RP-LC retention time: 669

---

experiment-description: gradient 5% acetonitrile 3 min, to 50% in 2 min, to 85% in 15 min, held 3 min, 100 µL/min
condition-parameters: column: Zorbax Extend-C18 2.1 x 50 mm; eluents: water / acetonitrile, 0.1% formic acid
Entries and their RP-LC retention time
Write down the numeric answer in s and omit the unit.

Consider the reported RP-LC retention time for these molecules:
> print(dat)
                                   molecule  recorded.measurement
1  CCCNc1cc(N2CCC(CCC(=O)NCc3ccc(F)c(Cl)c3)CC2)ncn1                   713
2  CC(C)c1ccc2oc3nc(N)c(C(=O)O)cc3c(=O)c2c1                   891
3  C[n+]1ccc(Nc2ccc(NC(=O)c3ccc(Nc4cc[n+](C)c5ccc([N+](=O)[O-])cc45)cc3[N+](=O)[O-])cc2)cc1                  1080
4   Cc1cc(=O)n(CC(=O)Nc2ccc(F)c(F)c2)c(N)n1                   598
5  CC(C)(C)NC(=O)CN1CCC(c2nc(-c3ccc(F)cc3)no2)CC1                   675

Lab note: next molecule to report on.
Input `Cc1noc(C)c1CC(=O)N1CCc2nn(CC3CC3)c(=O)n2CC1` . Output RP-LC retention time: 626

---

Entries and their RP-LC retention time
experiment-description: gradient 5% acetonitrile 3 min, to 50% in 2 min, to 85% in 15 min, held 3 min, 100 µL/min
condition-parameters: column: Zorbax Extend-C18 2.1 x 50 mm; eluents: water / acetonitrile, 0.1% formic acid
Write down the numeric answer in s and omit the unit.

Consider the reported RP-LC retention time for these compounds:
> print(dat)
                                    compound  recorded.measurement
 1  CCCS(=O)(=O)N1CCOc2ccc(NC(=O)C3CC3)cc2C1                   754
 2  COc1cccc(CNc2c(-c3nc(C(C)C)no3)cnc3nc(C)ccc23)c1                   790
 3  COc1ccc(C(O)CN2CCN(c3cccc(C)c3)CC2)cc1 (stereo not given)                   671
 4  CCN1CCN(C(=O)Cc2csc(-n3nc(C)c(Cl)c3C)n2)CC1                   691
 5           Cc1cc(NC(=O)CCCSc2ccc(F)cc2)no1                   838
 6  O=C(Nc1ccccc1Cl)N1CCC(n2c(C(F)(F)F)nc3cccnc32)CC1                   912
 7  O=C(Nc1cccc(Cl)c1)c1nn2c(C(F)(F)F)cc(-c3ccco3)nc2c1Cl                  1230
 8  COCCN1C(=O)c2ccccc2C(C(=O)NCCc2c[nH]c3ccccc23)C12CCCC2 (stereo not given)                   845
 9  COc1cc(OC)cc(-c2nc(NC(=O)C3CCCN(c4cnc5ccccc5n4)C3)n[nH]2)c1 (stereo not given)                  1020
10  Cc1ccccc1S(=O)(=O)N1CCC2(CC1)NCCN=C2NCc1ccc(F)cc1                   730

Input `CCN(Cc1ccccc1)C(=O)Cn1c(N)nc(C)cc1=O` . Output RP-LC retention time: 596

Input `CCn1ccc2c(cc(C(=O)Nc3ccc(Br)c(C)c3)n2C)c1=O` . Output RP-LC retention time: 895

Input `O=C([C@@H]1C[C@H](F)CN1C(=O)COc1ccc(F)cc1)N1CCCCC1` . Output RP-LC retention time: 714

Input `Cc1ccc(C)c(NC(=O)N2CCN(c3cc(-c4cccnc4)[nH]n3)CC2)c1` . Output RP-LC retention time: 632

Input `CCc1ccccc1NC(=O)C1CCN(S(=O)(=O)c2c(C)nn(-c3ccccc3)c2C)CC1` . Output RP-LC retention time: 985

Input O=C(NCc1cccnc1)C1CCCN(c2ncnc3c2oc2ccccc23)C1 (stereo not given) . Output RP-LC retention time: 576

Input CCCn1nnc2cc(-c3noc(C4CC(=O)N(c5ccc(C)cc5)C4)n3)ccc21 (stereo not given) . Output RP-LC retention time: 964

Input COc1ccc(N2CC(c3nnc(NC(=O)c4ccc(Br)cc4)o3)CC2=O)cc1 (stereo not given) . Output RP-LC retention time: 759

Input `O=C(Nc1cc(F)ccc1Cl)c1cnc(-c2ccccc2)nc1-c1ccncc1` . Output RP-LC retention time: 1000

Input `COc1ccccc1-c1nc2cnccn2c1NCCC(=O)NC1CCCCCC1` . Output RP-LC retention time: 715
